Data origin: patent US10364247B2

A collection of compounds and their measured GI50
- System tested: BaF3-EML4-ALK (Homo sapiens)
- Construct: fused on or other part: Q9HC35 (Echinoderm microtubule-associated protein-like 4)
- Test method notes: Antiproliferative activity, kinase-dependent Ba/F3 cells (MTT/MTS)
- Type: cell-based, murine
- Experimental setup: 48 hours, cell viability, read-out: EML4-ALK IC50
- Description: Following up on the kinome data, the ability of compounds disclosed in the present invention to inhibit proliferation of cells that are dependent on selected protein kinases was tested. […] The background control wells to which media with no cells added and the vehicle control wells were included on each plate in triplicate. Cell viability was determined using MTT (Sigma, St. Louis, Mo., USA) and MTS (Promega, Madison, Wis., USA), according to the manufacturer's instructions. […]
The response must be a number in nM with no trailing unit.

# example entries with known answers
chem_smiles=Cc1ccc(NC(=O)c2cccc(C(F)(F)F)c2)cc1N1Cc2cnc(Nc3ccc(N4CCC(O)CC4)nc3)nc2N(C)C1 endpoint_name=GI50 test_result=1870
chem_smiles=Cc1ccc(NC(=O)c2cccc(C(F)(F)F)c2)cc1N1Cc2cnc(N[C@@H](C)CO)nc2N(C)C1 endpoint_name=GI50 test_result=9220
chem_smiles=COc1cc(C(=O)N2CCN(C)CC2)ccc1Nc1ncc2c(n1)N(C)CN(c1cc(NC(=O)c3cccc(C(F)(F)F)c3)ccc1C)C2 endpoint_name=GI50 test_result=1540

Req: State the recorded GI50 for this entry: Cc1ccc(NC(=O)c2cccc(C(F)(F)F)c2)cc1N1Cc2cnc(NC3CC3)nc2N(C)C1
Resp: 6790

Req: Next entry: Cc1ccc(Nc2ncc3c(n2)N(C)CN(c2cc(NC(=O)c4cccc(C(F)(F)F)c4)ccc2C)C3)cn1
Resp: 1470

Req: Next entry: CCN(CC)c1ccc(Nc2ncc3c(n2)N(C)CN(c2cc(NC(=O)c4cccc(C(F)(F)F)c4)ccc2C)C3)cn1
Resp: 3190

Req: Next entry: Cc1ccc(NC(=O)c2cccc(C(F)(F)F)c2)cc1N1Cc2cnc(NC3CCN(C)CC3)nc2N(C)C1
Resp: 1530

----------
- System tested: BaF3-EML4-ALK (Homo sapiens, UniProt Q9UM73)
- Construct: fused on or other part: Q9HC35 (Echinoderm microtubule-associated protein-like 4)
- Sequence (Q9UM73 whole entry, change not shown, the tested form may be a part): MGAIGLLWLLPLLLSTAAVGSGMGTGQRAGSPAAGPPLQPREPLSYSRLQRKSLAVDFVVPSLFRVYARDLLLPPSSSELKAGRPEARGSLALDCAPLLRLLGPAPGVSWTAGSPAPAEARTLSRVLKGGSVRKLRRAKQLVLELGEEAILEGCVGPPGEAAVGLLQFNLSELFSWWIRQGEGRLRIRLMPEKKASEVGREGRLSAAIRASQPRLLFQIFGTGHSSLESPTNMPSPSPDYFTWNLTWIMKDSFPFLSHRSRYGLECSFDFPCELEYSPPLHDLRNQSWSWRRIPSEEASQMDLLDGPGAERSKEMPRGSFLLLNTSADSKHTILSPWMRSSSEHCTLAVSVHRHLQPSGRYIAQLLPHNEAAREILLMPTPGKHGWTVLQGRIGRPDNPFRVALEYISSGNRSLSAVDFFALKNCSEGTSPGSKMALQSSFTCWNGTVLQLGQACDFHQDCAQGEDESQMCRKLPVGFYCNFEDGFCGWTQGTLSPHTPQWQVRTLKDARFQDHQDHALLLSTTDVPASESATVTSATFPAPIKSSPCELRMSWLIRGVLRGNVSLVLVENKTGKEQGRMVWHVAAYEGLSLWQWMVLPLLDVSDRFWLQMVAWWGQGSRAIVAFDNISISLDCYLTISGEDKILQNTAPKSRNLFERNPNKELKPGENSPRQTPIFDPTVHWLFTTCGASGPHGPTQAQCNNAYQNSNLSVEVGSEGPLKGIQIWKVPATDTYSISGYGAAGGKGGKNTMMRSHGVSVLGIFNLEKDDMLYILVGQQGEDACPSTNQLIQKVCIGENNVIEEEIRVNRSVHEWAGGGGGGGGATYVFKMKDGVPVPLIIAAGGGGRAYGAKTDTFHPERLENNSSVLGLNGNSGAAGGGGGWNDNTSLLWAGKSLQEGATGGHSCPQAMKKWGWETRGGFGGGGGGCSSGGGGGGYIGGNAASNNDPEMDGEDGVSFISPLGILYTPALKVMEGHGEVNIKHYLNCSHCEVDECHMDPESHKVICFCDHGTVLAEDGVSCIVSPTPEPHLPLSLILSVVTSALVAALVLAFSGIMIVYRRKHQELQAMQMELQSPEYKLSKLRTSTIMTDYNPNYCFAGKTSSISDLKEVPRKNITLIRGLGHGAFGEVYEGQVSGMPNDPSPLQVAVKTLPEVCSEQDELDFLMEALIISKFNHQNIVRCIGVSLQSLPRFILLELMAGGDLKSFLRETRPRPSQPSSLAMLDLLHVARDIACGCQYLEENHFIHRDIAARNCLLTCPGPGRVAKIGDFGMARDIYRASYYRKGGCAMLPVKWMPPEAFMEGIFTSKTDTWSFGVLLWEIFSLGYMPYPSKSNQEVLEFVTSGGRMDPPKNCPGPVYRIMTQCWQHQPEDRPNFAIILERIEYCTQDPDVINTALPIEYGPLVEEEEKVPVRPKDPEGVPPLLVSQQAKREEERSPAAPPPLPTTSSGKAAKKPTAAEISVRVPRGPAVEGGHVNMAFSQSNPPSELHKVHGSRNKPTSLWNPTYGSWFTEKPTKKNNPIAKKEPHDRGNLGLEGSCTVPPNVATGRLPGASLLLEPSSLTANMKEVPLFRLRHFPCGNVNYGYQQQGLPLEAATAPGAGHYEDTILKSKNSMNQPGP
- Test method notes: Antiproliferative activity, kinase-dependent Ba/F3 cells (MTT/MTS)
- Type: cell-based, murine
- Experimental setup: 48 hours, cell viability, read-out: EML4-ALK IC50
- Procedure: Following up on the kinome data, the ability of compounds disclosed in the present invention to inhibit proliferation of cells that are dependent on selected protein kinases was tested. […] The background control wells to which media with no cells added and the vehicle control wells were included on each plate in triplicate. Cell viability was determined using MTT (Sigma, St. Louis, Mo., USA) and MTS (Promega, Madison, Wis., USA), according to the manufacturer's instructions. […]
Endpoint name: GI50 (µM)
The response must be a number in µM with no trailing unit.

chem_smiles=Cc1ccc(NC(=O)c2cccc(C(F)(F)F)c2)cc1N1Cc2cnc(Nc3cnn(C)c3)nc2N(C)C1 test_result=4.64

API: the following record is the query input.
Req: State the recorded GI50 for this entry: Cc1ccc(Nc2ncc3c(n2)N(C)CN(c2cc(C(=O)Nc4cccc(C(F)(F)F)c4)ccc2C)C3)cn1
Resp: 1.65

----------
- Tested on: Wt-BaF3
- Test method notes: Parental Ba/F3 cell proliferation (CellTiter Glo)
- Format: cell-based, murine
- Experimental setup: Mus musculus, parental BaF/3 cells, 48 hours
A collection of compounds and their measured IC50
The response must be a number in µM with no trailing unit.

# example entries with known answers
chem_smiles=CNc1ncc2c(n1)N(C)CN(c1cc(NC(=O)c3cccc(C(F)(F)F)c3)ccc1C)C2 system_tested=Wt-BaF3 endpoint_name=IC50 test_result=12.5
chem_smiles=Cc1ccc(Nc2ncc3c(n2)N(C2CCCC2)CN(c2cc(NC(=O)c4cccc(C(F)(F)F)c4)ccc2C)C3)cn1 system_tested=Wt-BaF3 endpoint_name=IC50 test_result=9.71
chem_smiles=Cc1cc(Nc2ncc3c(n2)N(C)CN(c2cc(NC(=O)c4cccc(C(F)(F)F)c4)ccc2C)C3)n(C)n1 system_tested=Wt-BaF3 endpoint_name=IC50 test_result=13.5

API: the following record is the query input.
Req: State the recorded IC50 for this entry: Cc1ccc(NC(=O)c2cccc(C(F)(F)F)c2)cc1N1Cc2cnc(Nc3cnn(C)c3)nc2N(C)C1
Resp: 11.8

----------
A collection of molecules and their measured GI50
- System tested: BaF3-TEL-LYN (Homo sapiens)
- Construct: fused on or other part: P41212 (Transcription factor ETV6)
- Sequence (P07948 whole entry, change not shown, the tested form may be a part): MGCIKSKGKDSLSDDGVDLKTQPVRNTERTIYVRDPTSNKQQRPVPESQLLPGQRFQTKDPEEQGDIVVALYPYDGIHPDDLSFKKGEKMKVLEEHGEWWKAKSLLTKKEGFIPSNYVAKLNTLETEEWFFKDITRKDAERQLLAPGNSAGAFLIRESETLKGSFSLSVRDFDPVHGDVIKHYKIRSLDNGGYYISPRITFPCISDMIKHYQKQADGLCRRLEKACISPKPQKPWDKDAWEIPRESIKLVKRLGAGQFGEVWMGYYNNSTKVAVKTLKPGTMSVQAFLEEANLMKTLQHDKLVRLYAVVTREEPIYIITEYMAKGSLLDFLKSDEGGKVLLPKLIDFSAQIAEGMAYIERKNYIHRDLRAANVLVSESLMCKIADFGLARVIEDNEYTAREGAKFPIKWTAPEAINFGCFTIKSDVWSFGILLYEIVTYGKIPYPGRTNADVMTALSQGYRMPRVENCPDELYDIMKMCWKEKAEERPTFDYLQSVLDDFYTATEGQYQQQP
- Test method notes: Antiproliferative activity, kinase-dependent Ba/F3 cells (MTT/MTS)
- Assay type: cell-based, murine
- Experimental setup: 48 hours, cell viability, read-out: tel-LYN IC50

# example entries with known answers
molecule="Cc1ccc(NC(=O)c2cccc(C(F)(F)F)c2)cc1N1Cc2cnc(NC3CCN(C)CC3)nc2N(C)C1 [IA-1]" system_tested="BaF3-TEL-LYN (Homo sapiens)" test_result="~2.79 µM"
molecule="Cc1ccc(NC(=O)c2cccc(C(F)(F)F)c2)cc1N1Cc2cnc(NCCc3c[nH]cn3)nc2N(C)C1 [IA-6]" system_tested="BaF3-TEL-LYN (Homo sapiens)" test_result="~3.21 µM"

Req: What reported GI50 corresponds to CONC(=O)c1ccc(C)c(N2Cc3cnc(Nc4ccc(C)nc4)nc3N(C)C2)c1 [IC-4] on BaF3-TEL-LYN (Homo sapiens)?
Resp: > 10 µM

----------
- System tested: BaF3-BCR/ABL (Homo sapiens)
- Construct: fused on or other part: P11274 (Breakpoint cluster region protein)
- Sequence (P00519 whole entry, change not shown, the tested form may be a part): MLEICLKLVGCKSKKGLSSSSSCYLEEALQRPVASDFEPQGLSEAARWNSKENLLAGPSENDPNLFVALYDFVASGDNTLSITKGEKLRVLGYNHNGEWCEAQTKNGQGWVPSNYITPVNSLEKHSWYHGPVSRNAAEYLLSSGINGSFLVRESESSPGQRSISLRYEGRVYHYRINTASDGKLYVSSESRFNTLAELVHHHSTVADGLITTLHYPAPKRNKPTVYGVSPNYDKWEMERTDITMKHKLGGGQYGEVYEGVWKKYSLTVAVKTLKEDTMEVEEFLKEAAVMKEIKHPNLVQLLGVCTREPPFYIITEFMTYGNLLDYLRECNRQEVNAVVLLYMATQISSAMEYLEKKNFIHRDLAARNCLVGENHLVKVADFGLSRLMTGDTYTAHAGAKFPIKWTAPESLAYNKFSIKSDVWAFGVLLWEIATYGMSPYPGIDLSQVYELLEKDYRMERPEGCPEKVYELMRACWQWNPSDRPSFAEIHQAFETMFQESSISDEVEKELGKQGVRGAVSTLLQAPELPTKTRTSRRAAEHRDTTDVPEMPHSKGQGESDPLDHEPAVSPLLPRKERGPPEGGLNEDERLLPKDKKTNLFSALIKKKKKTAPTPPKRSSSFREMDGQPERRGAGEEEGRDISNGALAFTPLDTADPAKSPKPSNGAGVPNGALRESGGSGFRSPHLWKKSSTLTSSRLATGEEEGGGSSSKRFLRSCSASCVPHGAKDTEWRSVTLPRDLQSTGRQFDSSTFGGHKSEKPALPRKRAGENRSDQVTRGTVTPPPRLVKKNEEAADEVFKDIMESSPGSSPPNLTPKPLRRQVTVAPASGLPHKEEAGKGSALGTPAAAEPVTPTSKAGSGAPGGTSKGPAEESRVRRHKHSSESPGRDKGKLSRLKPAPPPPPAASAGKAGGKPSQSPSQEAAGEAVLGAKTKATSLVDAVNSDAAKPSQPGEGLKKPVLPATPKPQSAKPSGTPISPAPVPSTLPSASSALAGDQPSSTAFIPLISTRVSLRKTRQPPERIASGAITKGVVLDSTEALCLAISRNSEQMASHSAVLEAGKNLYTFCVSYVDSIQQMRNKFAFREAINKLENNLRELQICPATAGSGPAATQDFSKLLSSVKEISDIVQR
- Test method notes: Antiproliferative activity, kinase-dependent Ba/F3 cells (MTT/MTS)
- Assay type: cell-based, murine
- Experimental setup: 48 hours, cell viability, read-out: BCR/ABL IC50
A collection of compounds and their measured GI50
The response must be a number in nM with no trailing unit.

# example entries with known answers
chem_smiles=COc1ccc(NC(=O)c2cccc(C(F)(F)F)c2)cc1N1Cc2cnc(Nc3ccc(C)nc3)nc2N(C)C1 endpoint_name=GI50 test_result=387
chem_smiles=Cc1ccc(Nc2ncc3c(n2)N(C)CN(c2cccc(NC(=O)c4cccc(C(F)(F)F)c4)c2)C3)cn1 endpoint_name=GI50 test_result=940
chem_smiles=CCN(CC)c1ccc(Nc2ncc3c(n2)N(C)CN(c2cc(NC(=O)c4cccc(C(F)(F)F)c4)ccc2C)C3)cn1 endpoint_name=GI50 test_result=205
chem_smiles=Cc1ccc(NC(=O)c2cccc(C(F)(F)F)c2)cc1N1Cc2cnc(N[C@@H](C)CO)nc2N(C)C1 endpoint_name=GI50 test_result=1940
chem_smiles=Cc1ccc(NC(=O)c2cccc(C(F)(F)F)c2)cc1N1Cc2cnc(Nc3ccc(N4CCOCC4)nc3)nc2N(C)C1 endpoint_name=GI50 test_result=4.18

Req: What reported GI50 corresponds to Cc1ccc(Nc2ncc3c(n2)N(c2ccccc2)CN(c2cc(NC(=O)c4cccc(C(F)(F)F)c4)ccc2C)C3)cn1 on BaF3-BCR/ABL (Homo sapiens)?
Resp: 669

Req: Next entry: Cc1ccc(Nc2ncc3c(n2)N(C2CC2)CN(c2cc(NC(=O)c4cccc(C(F)(F)F)c4)ccc2C)C3)cn1
Resp: 53.8

Req: Next entry: Cc1ccc(NC(=O)c2cccc(C(F)(F)F)c2)cc1N1Cc2cnc(NC3CCN(C)CC3)nc2N(C)C1
Resp: 4280

Req: Next entry: COc1cc(C(=O)N2CCN(C)CC2)ccc1Nc1ncc2c(n1)N(C)CN(c1cc(NC(=O)c3cccc(C(F)(F)F)c3)ccc1C)C2
Resp: 1710

Req: Next entry: CNc1ncc2c(n1)N(C)CN(c1cc(NC(=O)c3cccc(C(F)(F)F)c3)ccc1C)C2
Resp: 1040

Req: Next entry: Cc1ccc(Nc2ncc3c(n2)N(C)CN(c2cc(C(=O)Nc4cccc(C(F)(F)F)c4)ccc2C)C3)cn1
Resp: 6.93

Req: Next entry: Cc1ccc(N)cc1N1Cc2cnc(Nc3ccc(N4CCOCC4)nc3)nc2N(C)C1
Resp: 353

Req: Next entry: CCN1CN(c2cc(NC(=O)c3cccc(C(F)(F)F)c3)ccc2C)Cc2cnc(Nc3ccc(C)nc3)nc21
Resp: 5.96

Req: Next entry: CONC(=O)c1ccc(C)c(N2Cc3cnc(Nc4ccc(C)nc4)nc3N(C)C2)c1
Resp: 63.1

Req: Next entry: Cc1ccc(NC(=O)c2cccc(C(F)(F)F)c2)cc1N1Cc2cnc(NCCN3CCOCC3)nc2N(C)C1
Resp: 1720

Req: Next entry: Cc1ccc(Nc2ncc3c(n2)N(C)CN(c2cc(NC(=O)c4cccc(C(F)(F)F)c4)ccc2Cl)C3)cn1
Resp: 9000

Req: Next entry: Cc1ccc(NC(=O)c2cccc(C(F)(F)F)c2)cc1N1Cc2cnc(Nc3ccc(N4CCC(O)CC4)nc3)nc2N(C)C1
Resp: 5.85

Req: Next entry: Cc1cc(Nc2ncc3c(n2)N(C)CN(c2cc(NC(=O)c4cccc(C(F)(F)F)c4)ccc2C)C3)n(C)n1
Resp: 7.96

Req: Next entry: Cc1ccc(Nc2ncc3c(n2)N(C)CN(c2cc(C(=O)NCCO)ccc2C)C3)cn1
Resp: 6360

Req: Next entry: Cc1ccc(Nc2ncc3c(n2)N(C)CN(c2cc(C(=O)NCCN4CCOCC4)ccc2C)C3)cn1
Resp: 217

Req: Next entry: Cc1ccc(NC(=O)c2cccc(C(F)(F)F)c2)cc1N1Cc2cnc(NCCc3c[nH]cn3)nc2N(C)C1
Resp: 2220

Req: Next entry: Cc1ccc(Nc2ncc3c(n2)N(C2CCCC2)CN(c2cc(NC(=O)c4cccc(C(F)(F)F)c4)ccc2C)C3)cn1
Resp: 303
